Reported inhibition by item:
- Tested on: Platelet-derived growth factor receptor alpha (Homo sapiens), P16234 [D842V]
- Sequence (P16234 whole entry D842V): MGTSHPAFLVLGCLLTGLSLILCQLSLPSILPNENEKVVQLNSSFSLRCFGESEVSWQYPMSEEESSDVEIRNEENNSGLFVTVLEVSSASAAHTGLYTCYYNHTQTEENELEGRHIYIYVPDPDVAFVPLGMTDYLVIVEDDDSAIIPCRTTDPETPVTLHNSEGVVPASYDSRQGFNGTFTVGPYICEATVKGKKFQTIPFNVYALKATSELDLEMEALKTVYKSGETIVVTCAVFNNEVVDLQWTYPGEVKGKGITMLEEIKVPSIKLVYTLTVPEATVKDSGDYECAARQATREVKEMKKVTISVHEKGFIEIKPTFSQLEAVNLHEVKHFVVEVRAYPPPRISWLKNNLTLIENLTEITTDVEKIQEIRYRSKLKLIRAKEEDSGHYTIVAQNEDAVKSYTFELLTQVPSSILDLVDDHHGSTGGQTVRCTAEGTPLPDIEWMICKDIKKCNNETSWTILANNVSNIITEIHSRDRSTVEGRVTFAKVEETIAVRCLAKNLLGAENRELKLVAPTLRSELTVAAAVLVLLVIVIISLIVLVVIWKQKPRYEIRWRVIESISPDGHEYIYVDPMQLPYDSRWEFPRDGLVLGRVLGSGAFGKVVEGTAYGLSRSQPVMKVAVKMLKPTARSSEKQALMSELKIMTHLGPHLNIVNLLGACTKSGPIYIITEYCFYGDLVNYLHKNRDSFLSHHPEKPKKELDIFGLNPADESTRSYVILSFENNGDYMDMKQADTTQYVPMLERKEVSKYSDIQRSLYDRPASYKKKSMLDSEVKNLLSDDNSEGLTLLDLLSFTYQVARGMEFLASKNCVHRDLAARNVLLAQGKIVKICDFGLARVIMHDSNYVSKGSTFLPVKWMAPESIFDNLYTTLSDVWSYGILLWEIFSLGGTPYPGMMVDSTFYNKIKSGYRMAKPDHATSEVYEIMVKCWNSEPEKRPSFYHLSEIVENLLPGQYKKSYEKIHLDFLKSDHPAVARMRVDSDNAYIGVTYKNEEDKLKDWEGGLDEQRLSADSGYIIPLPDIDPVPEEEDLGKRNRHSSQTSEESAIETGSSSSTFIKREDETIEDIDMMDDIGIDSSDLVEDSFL
- conditions.used: at 0.1 µM

compound	inhibition [%]
CS(=O)(=O)Nc1ccc(-c2ccc3c(NC(=O)C4CC4)n[nH]c3c2)cc1	3.79
CCS(=O)(=O)c1ccc(OC)c(Nc2ncc(-c3cccc(C(C)=O)c3)o2)c1	20.1
COc1cc(N2CCN(C(C)C)CC2)ccc1Nc1nc(Nc2cccc3ncccc23)c2cc[nH]c2n1	0.2
CS(=O)(=O)CCNCc1ccc(-c2ccc3ncnc(Nc4ccc(OCc5cccc(C(F)(F)F)c5)cc4)c3c2)o1	0.59
CC1(C)CC(n2cnc(-c3ccc(F)cc3)c2-c2ccnc(N)n2)CC(C)(C)N1	1.19
Fc1cccc(COc2ccc(Nc3ncncc3C#Cc3ccccc3)cc2Cl)c1	5.22
CNC(=O)c1sc(-n2cnc3cc(OC)c(OC)cc32)cc1OCc1ccccc1C(F)(F)F	3.81
CNC(=O)c1cncc(/C=C/c2ccccc2C)c1	3.85
O=C(O[C@H]1CN[C@H](C#Cc2cc3ncnc(Nc4ccc(OCc5cccc(F)c5)c(Cl)c4)c3s2)C1)N1CCOCC1	2.95
COC(=O)Nc1nc2ccc(Oc3ccc(NC(=O)Nc4cc(C(F)(F)F)ccc4F)cc3)cc2s1	5.8
CC(C)c1ccc(-c2cc(-c3c[nH]nc3-c3ccccn3)ccn2)cc1	5.82
CCS(=O)(=O)c1ccc(OC)c(Nc2ncc(-c3cccc(F)c3)o2)c1	11.3
COc1cc(N2CCN(C(C)C)CC2)ccc1Nc1nc(Nc2cccc(F)c2C(=O)O)c2cc[nH]c2n1	3.04
Cc1cc(O)cc(C)c1/C=C/c1cncc(C(=O)OC(C)(C)C)c1	5.23
CC1=C(C(=O)Nc2ccc3[nH]ncc3c2)C(c2ccc(F)cc2)N=C(c2ccc(C(F)(F)F)nc2)N1 (stereo not given)	2.97
CCn1c(-c2nonc2N)nc2cncc(C(=O)NCCNC)c21	4.53
NS(=O)(=O)c1ccc(N/N=C2\C(=O)Nc3cccc(CCc4ccncc4)c32)cc1	16.9
CN(c1ccc(NC(=O)NCCN2CCOCC2)cc1)c1ccnc(Nc2ccc(CS(C)(=O)=O)cc2)n1	2.7
CN(C)CCNC(=O)Nc1ccc(N(C)c2ccnc(Nc3ccc(CS(C)(=O)=O)cc3)n2)cc1	9.49
N#Cc1cccc(Nc2ncc(-c3ccccc3)o2)c1	1.11

----------
- assay.target: Serine/threonine-protein kinase 26 (Homo sapiens);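 further: mean inhibition of MST4 kinase activity, reported from the GSK PKIS inhibitor-set screening panel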
- conditions.used: at 1 µM
measured.parameter: inhibition (%)

smiles.entry	number
COC(=O)Nc1nc2cc(Oc3ccc(NC(=O)Nc4ccccc4)cc3)ccc2[nH]1	0.25
NC(=O)c1ccc2c(-c3ccnc(NCCCO)n3)c(-c3ccc(F)cc3)nn2c1	-2.28
CCS(=O)(=O)c1ccc(OC)c(Nc2ncc(-c3cccc(F)c3)o2)c1	-0.44
O=C1Nc2ccccc2/C1=C1\CCc2cc(O)ccc21	-7.51
Fc1cccc(COc2ccc(Nc3ncncc3C#Cc3ccccc3)cc2Cl)c1	0.47
CCN1CCC(C(=O)Nc2n[nH]c3nnc(-c4cccc(F)c4F)cc23)CC1	0.11
CCOc1ccc2c(-c3ccnc(Nc4cc(OC)cc(C(F)(F)F)c4)n3)cnn2n1	1.8
O=C(O[C@H]1CN[C@H](C#Cc2cc3ncnc(Nc4ccc5c(ccn5Cc5cc(F)ccc5F)c4)c3s2)C1)N1CCOCC1	0.81
Cc1cc(O)cc(C)c1/C=C/c1cncc(C(N)=O)c1	-0.01
O=C(O[C@H]1CN[C@H](C#Cc2cc3ncnc(Nc4ccc(OCc5cccc(F)c5)c(Cl)c4)c3s2)C1)N1CCOCC1	-0.1

----------
- assay.target: Tyrosine-protein kinase Lyn (Homo sapiens);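 further: mean inhibition of the LYN B splice variant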
- conditions.used: at 0.1 µM
- Description: GSK_PKIS: LYN B (splice variant) mean inhibition at 0.1 uM [Nanosyn]

smiles.entry	inhibition (%)
CS(=O)(=O)CCNCc1ccc(-c2ccc3ncnc(Nc4ccc(OCc5cccc(C(F)(F)F)c5)cc4)c3c2)o1	-0.37
COc1cc(N2CCN(C(C)C)CC2)ccc1Nc1nc(Nc2cccc3ncccc23)c2cc[nH]c2n1	0.31
CCn1c(-c2nonc2N)nc2cncc(C(=O)NCCNC)c21	3.01

----------
- assay.target: Calcium/calmodulin-dependent protein kinase type II subunit delta (Homo sapiens) (UniProt Q13557);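 further: mean percent inhibition of CAMK2D, from screening of the GSK Published Kinase Inhibitor Set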
- Sequence (Q13557 whole entry): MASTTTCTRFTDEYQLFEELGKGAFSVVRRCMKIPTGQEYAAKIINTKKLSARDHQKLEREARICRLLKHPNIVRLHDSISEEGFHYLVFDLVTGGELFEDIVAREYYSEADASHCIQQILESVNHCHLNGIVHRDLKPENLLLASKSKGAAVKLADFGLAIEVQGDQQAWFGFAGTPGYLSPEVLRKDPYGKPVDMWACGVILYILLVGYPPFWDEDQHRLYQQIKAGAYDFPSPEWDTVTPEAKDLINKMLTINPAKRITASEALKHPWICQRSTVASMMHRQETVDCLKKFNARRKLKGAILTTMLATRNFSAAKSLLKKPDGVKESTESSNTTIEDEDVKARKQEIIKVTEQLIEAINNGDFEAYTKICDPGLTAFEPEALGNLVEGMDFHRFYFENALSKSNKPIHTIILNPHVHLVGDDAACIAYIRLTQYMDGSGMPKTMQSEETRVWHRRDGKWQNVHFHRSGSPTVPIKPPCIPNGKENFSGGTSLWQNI
- conditions.used: at 1 µM

compound	inhibition (%)
NS(=O)(=O)c1ccc(N/N=C2\C(=O)Nc3ccc(C(=O)NCc4ccncc4)cc32)cc1	11.8
CC1(C)CC(n2cnc(-c3ccc(F)cc3)c2-c2ccnc(N)n2)CC(C)(C)N1	-0.31
CS(=O)(=O)Nc1ccc(-c2cc(-c3ccccc3)cc(C(N)=O)c2N)cc1	1.39
O=C1Nc2ccccc2/C1=C1\CCc2cc(O)ccc21	13
COc1cc(N2CCN(C(C)C)CC2)ccc1Nc1nc(Nc2cccc3ncccc23)c2cc[nH]c2n1	9.94
COC(=O)Nc1nc2cc(Oc3ccc(NC(=O)Nc4ccccc4)cc3)ccc2[nH]1	1.54
COc1c(C(N)=O)cc(-c2ccc(Cl)cc2)cc1-c1ccc(S(N)(=O)=O)cc1	8.49
COC(=O)Nc1nc2ccc(Oc3ccc(NC(=O)Nc4cc(C(F)(F)F)ccc4F)cc3)cc2s1	1.63
Cc1cc(O)cc(C)c1/C=C/c1cncc(C(N)=O)c1	6.44
CNC(=O)c1cncc(/C=C/c2ccccc2C)c1	3.14
CC1=C(C(=O)Nc2ccc3[nH]ncc3c2)C(c2ccc(F)cc2)N=C(c2ccc(C(F)(F)F)nc2)N1 (configuration not stated)	3.6
CCCNc1cccc(-n2ncc3c(N/N=C/c4ccncc4)ncnc32)c1	1.17
Cc1cc(O)cc(C)c1/C=C/c1cncc(C(=O)OC(C)(C)C)c1	5.41
Cc1ccc(-c2cc3c(NC(=O)C4CC4)ncnc3o2)cc1	3.7
COc1cc(N2CCN(C(C)C)CC2)ccc1Nc1nc(Nc2cccc(F)c2C(=O)O)c2cc[nH]c2n1	6.33
NS(=O)(=O)c1ccc(N/N=C2\C(=O)Nc3cccc(CCc4ccncc4)c32)cc1	4.29
CS(=O)(=O)CCNCc1ccc(-c2ccc3ncnc(Nc4ccc(OCc5ccccc5)cc4)c3c2)o1	1.68
COc1cccc(Nc2nccc(-c3cnn4ncccc34)n2)c1	35.4
COc1ccc(Nc2ncc(-c3ccccc3)o2)cc1OC	8.26
FC(F)(F)CNc1nccc(-c2cnn3ncccc23)n1	1.95
CCN1CCC(C(=O)Nc2n[nH]c3nnc(-c4cccc(F)c4F)cc23)CC1	-0.61
CCn1c(-c2nonc2N)nc2cncc(C(=O)NCCNC)c21	6.88
Cn1c(-c2nonc2N)nc2cnccc21	4.76
Fc1ccc(Nc2nccc(-c3c(-c4ccc(C(F)(F)F)cc4)nn4ncccc34)n2)cc1F	4.42
Fc1cccc(COc2ccc(Nc3ncncc3C#Cc3ccccc3)cc2Cl)c1	2.05
CCOc1ccc2c(-c3ccnc(Nc4cc(OC)cc(C(F)(F)F)c4)n3)cnn2n1	1.42
N#Cc1ccc2c(-c3ccnc(NC4CC4)n3)c(-c3ccc(F)cc3)nn2c1	-1.01
CN(c1ccc(NC(=O)NCCN2CCOCC2)cc1)c1ccnc(Nc2ccc(CS(C)(=O)=O)cc2)n1	3.97
CN(C)CCNC(=O)Nc1ccc(N(C)c2ccnc(Nc3ccc(CS(C)(=O)=O)cc3)n2)cc1	5.02
COc1ccccc1-c1cc(/C=C2\C(=O)Nc3ncc(Br)cc32)cc(Br)c1O	7.42
O=C(O[C@H]1CN[C@H](C#Cc2cc3ncnc(Nc4ccc5c(ccn5Cc5cc(F)ccc5F)c4)c3s2)C1)N1CCOCC1	3.62
COc1ccc2ncn(-c3cc(O[C@H](C)c4ccccc4C(F)(F)F)c(C(N)=O)s3)c2c1	5.44
COc1cccc(-n2ncc3c(N/N=C/c4ccc(C(=O)NCCN(C)C)cc4)ncnc32)c1	36.1
Cc1nnc(-c2cccc(-c3ccc(C(=O)NCC4CC4)cc3)c2)o1	6.04
COc1cc(Nc2ncc(-c3ccccc3)o2)cc(OC)c1	7.34
Cc1c2ccc(N(C)c3ccnc(Nc4cccc(S(N)(=O)=O)c4)n3)cc2nn1C	5.37
c1ccc(-c2n[nH]cc2-c2ccnc(-c3ccc(OCCn4ccnc4)cc3)c2)nc1	0.74

----------
Reported inhibition by item:
- assay.target: Cyclin-dependent kinase 2 (Homo sapiens);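 further: mean inhibition of CDK2 in complex with cyclin E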
- conditions.used: at 0.1 µM

smiles.entry	scale.unit	inhibition
NC(=O)c1ccc2c(-c3ccnc(NCCCO)n3)c(-c3ccc(F)cc3)nn2c1	%	3.22
CN(C)CCNC(=O)Nc1ccc(N(C)c2ccnc(Nc3ccc(CS(C)(=O)=O)cc3)n2)cc1	%	3.93
Fc1cccc(COc2ccc(Nc3ncncc3C#Cc3ccccc3)cc2Cl)c1	%	4.38
Cc1cc(O)cc(C)c1/C=C/c1cncc(C(N)=O)c1	%	2.51
COc1ccc2ncn(-c3cc(O[C@H](C)c4ccccc4C(F)(F)F)c(C(N)=O)s3)c2c1	%	-0.81

----------
Reported inhibition by item:
- assay.target: Interleukin-1 receptor-associated kinase 4 (Homo sapiens);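 further: mean inhibition values, from the GSK PKIS dataset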
- conditions.used: at 1 µM

smiles.entry	assay.target	inhibition, %
COc1ccc(-c2nn3ncccc3c2-c2ccnc(Nc3ccc(F)c(F)c3)n2)cc1	Interleukin-1 receptor-associated kinase 4 (Homo sapiens)	1.76
CN1CCC(n2cnc(-c3ccc(F)cc3)c2-c2ccnc(NCCO)n2)CC1	Interleukin-1 receptor-associated kinase 4 (Homo sapiens)	1.47
NC(=O)c1ccc2c(-c3ccnc(NCCCO)n3)c(-c3ccc(F)cc3)nn2c1	Interleukin-1 receptor-associated kinase 4 (Homo sapiens)	2.22
O=C(Nc1n[nH]c2nnc(-c3cccnc3)cc12)C1CC1	Interleukin-1 receptor-associated kinase 4 (Homo sapiens)	-0.13
CCN1CCC(C(=O)Nc2n[nH]c3nnc(-c4cccc(F)c4F)cc23)CC1	Interleukin-1 receptor-associated kinase 4 (Homo sapiens)	0.13
COc1cccc(Nc2nccc(-c3cnn4ncccc34)n2)c1	Interleukin-1 receptor-associated kinase 4 (Homo sapiens)	11.1
NS(=O)(=O)c1ccc(N/N=C2\C(=O)Nc3ccc(C(=O)NCc4ccncc4)cc32)cc1	Interleukin-1 receptor-associated kinase 4 (Homo sapiens)	1.57
CC1(C)CC(n2cnc(-c3ccc(F)cc3)c2-c2ccnc(N)n2)CC(C)(C)N1	Interleukin-1 receptor-associated kinase 4 (Homo sapiens)	0.49
